Where these numbers come from: the supplement of paper PMC11417369

# Tested on: PfSIP2 AP2 domain 1 (GST-tagged)
# protocol: gcPBM binding intensity (ln(normalized median fluorescence intensity)); higher = stronger DNA binding
The full ranking holds about 25,000 sequences; the median of “ln(normalized median fluorescence intensity)” is about 7.1, and the highest 2% start at about 10. The sample holds the highest values, similar sequences and a random draw of the others, so the mix is not that of the screen.
quantity: gcPBM binding intensity (ln)
In your answer, state the number alone without any accompanying words.

IN: What does the record list as gcPBM binding intensity (ln) for GTTTAACTGTTTTATACACACAATGTATACAATAAA [CACACA_site2959] ?
OUT: 7.02

IN: What does the record list as gcPBM binding intensity (ln) for TGTGTATAAGTCACTTGTACTAGTAGTAAAAAAAAA [XGTACX_site4341] ?
OUT: 6.85

IN: What does the record list as gcPBM binding intensity (ln) for TTTTTTTGTTAAAAGGTGCTAATATATATAAGTGCT ?
OUT: 9.03

IN: What does the record list as gcPBM binding intensity (ln) for TGAGCACAAATACAGGTGCATATAAAATATATGACG ?
OUT: 10.5

IN: What does the record list as gcPBM binding intensity (ln) for TATAAATATACAAAGGTGCATAAAAAGTTATGTTTT [GTGCAC_site9832] ?
OUT: 10.4

IN: What does the record list as gcPBM binding intensity (ln) for AATAAATACTAAATGGTGCAAAATTTTTTAACACTG ?
OUT: 10.7

IN: What does the record list as gcPBM binding intensity (ln) for ATGTTTGAGCCTAAGGTGCATATAAAAATATATGTG [GTGCAC_site9690] ?
OUT: 10.7

IN: What does the record list as gcPBM binding intensity (ln) for TAAATCAAAATAATTTAACACACAATTTTAATACTG [CACACA_site8744] ?
OUT: 6.67

IN: What does the record list as gcPBM binding intensity (ln) for ATACTATTTAAATGGGTGCTAAAAATAACAAAAATT ?
OUT: 8.88

IN: What does the record list as gcPBM binding intensity (ln) for TAAAAATAATTTGCATGTACATAGGTCGATGTATTT [XGTACX_site1357] ?
OUT: 7.08

IN: What does the record list as gcPBM binding intensity (ln) for TTAATCCACAGACACACACACACAAAATAAAATACA [CACACA_site244] ?
OUT: 7.22

IN: What does the record list as gcPBM binding intensity (ln) for ATTTTTCTAAAATACTGTACAAAGGTGCATAAAAAG [XGTACX_site4425] ?
OUT: 11.5

IN: What does the record list as gcPBM binding intensity (ln) for ATAATTCCATAAAATAGACACACGAATGTATAATAT [CACACA_site477] ?
OUT: 7

IN: What does the record list as gcPBM binding intensity (ln) for GTAGATATTTATTGAGTGCATGTTATAAAGGGAAAA [GTGCAC_site9481] ?
OUT: 9.62

IN: What does the record list as gcPBM binding intensity (ln) for ATAATGAAGACTTTTTTACACACTTCATATATTATA [CACACA_site8630] ?
OUT: 6.96

IN: What does the record list as gcPBM binding intensity (ln) for ATGTCATAAATGTACGCACACATACATAAACATATA [CACACA_site4530] ?
OUT: 7.33

IN: What does the record list as gcPBM binding intensity (ln) for TCTTTTTTAAATAAAAGTACAAAAAAAAATAAAAAA [XGTACX_site2670] ?
OUT: 6.93

IN: What does the record list as gcPBM binding intensity (ln) for CATTTTTTGCTTTCAACACACATACAATATATATAA [CACACA_site6127] ?
OUT: 7.26

IN: What does the record list as gcPBM binding intensity (ln) for GTTATAAATAAATACACACATACAAAAATATGACGT [CACACA_site1154] ?
OUT: 6.94

IN: What does the record list as gcPBM binding intensity (ln) for AAGGAAAAGTAAAGAAGTACTGTACCGCCAAAAAAA [XGTACX_site2607] ?
OUT: 6.98

----------
Kindly supply the reported gcPBM binding intensity (ln) values for the records listed here.
# Test system: PfSIP2 AP2 domain 1 (GST-tagged)
# protocol: gcPBM binding intensity (ln(normalized median fluorescence intensity)); higher = stronger DNA binding
The full ranking holds about 25,000 sequences; the median of “ln(normalized median fluorescence intensity)” is about 7.1, and the highest 2% start at about 10. This is one part of a sample in which the highest values are shown more often than they occur.
In your answer, state the number alone without any accompanying words.

IN: What does the record list as gcPBM binding intensity (ln) for TATTTTTATTATATGGTGCATATATACATACATATA ?
OUT: 10.4

IN: What does the record list as gcPBM binding intensity (ln) for ATATGTATGTATTTATTATTGTGCATTGTATTTATA [CACACA_negctrl_site664] ?
OUT: 7.44

IN: What does the record list as gcPBM binding intensity (ln) for TATAAACATAAAACCAGTACATATATATTTTTCTTC [XGTACX_site212] ?
OUT: 6.84

IN: What does the record list as gcPBM binding intensity (ln) for TTTATTTTGTTTATGGTGCATTTTATGTAAATATAT ?
OUT: 10.8

IN: What does the record list as gcPBM binding intensity (ln) for GAAAATATTAAATGAAGTACAATATTTATGTTACTT [XGTACX_site8737] ?
OUT: 6.71

IN: What does the record list as gcPBM binding intensity (ln) for ACCTACACAAGCATTAAACACACAAAAGGGATACTT [CACACA_site8273] ?
OUT: 7.18

IN: What does the record list as gcPBM binding intensity (ln) for ATCATATTTATGTTGGTGCATTATACATAAAGTTTA [GTGCAC_site9574] ?
OUT: 10.2

IN: What does the record list as gcPBM binding intensity (ln) for ATATATATATTTTATGCATGTTCATTTTCTATATTT [TGCATGCA_site442] ?
OUT: 8.1

IN: What does the record list as gcPBM binding intensity (ln) for GATATATAAACATATACACACAAAAACATATTTATA [CACACA_site6734] ?
OUT: 6.98

IN: What does the record list as gcPBM binding intensity (ln) for ATTATCAATATGAAGGTGCATTTAAATAATATTTAC ?
OUT: 10.7

IN: What does the record list as gcPBM binding intensity (ln) for TTTTTTTTTAATAAAATTATAATAAATATGAAATTA [XGTACX_negctrl_site369] ?
OUT: 6.67

IN: What does the record list as gcPBM binding intensity (ln) for TTACACATGTATTTGGTGCATGTTGTTAACAAAATA ?
OUT: 9.57

IN: What does the record list as gcPBM binding intensity (ln) for GACAATATTAAAACATGTACATGCATTTTATGAATA [XGTACX_site553] ?
OUT: 7.05

IN: What does the record list as gcPBM binding intensity (ln) for TTTGAGTGCACATACACACAGACATACATTTAAATA [CACACA_site3403] ?
OUT: 11.9

IN: What does the record list as gcPBM binding intensity (ln) for TATATAATATATATAGTGCATAAGTTCAAAAGAATA [GTGCAC_site9805] ?
OUT: 8.73

IN: What does the record list as gcPBM binding intensity (ln) for CACCCTTTACACAAGGTGCATACTTTATTATATTTT [GTGCAC_site9778] ?
OUT: 10.6

IN: What does the record list as gcPBM binding intensity (ln) for AAAATTATTTAGTAAGTGCAAAAAAAAAAAAAAAAA ?
OUT: 8.21

IN: What does the record list as gcPBM binding intensity (ln) for CATACAATAAATATGGTGCATTTTATGTAACCGTTT [GTGCAC_site9420] ?
OUT: 10.4

IN: What does the record list as gcPBM binding intensity (ln) for ACACATGTATTTGGTGCATGTTGTTAAAAAAATATT [TGCATGCA_site795] ?
OUT: 10.8

IN: What does the record list as gcPBM binding intensity (ln) for TAATACCATTGTCATGCATGCACATTATTACTCTAA [TGCATGCA_site160] ?
OUT: 7.38

----------
Kindly supply the reported gcPBM binding intensity (ln) values for the records listed here.
# Tested on: PfSIP2 AP2 domain 1 (GST-tagged)
# protocol: gcPBM binding intensity (ln(normalized median fluorescence intensity)); higher = stronger DNA binding
In all, about 25,000 sequences were measured (“ln(normalized median fluorescence intensity)”: median about 7.1, highest 2% from about 10 on). Many of the other results were omitted from the sample, so the highest values are more common in it than they were.
In your answer, state the number alone without any accompanying words.

IN: What does the record list as gcPBM binding intensity (ln) for TATTTGTTTGAATTTTTTTTTTTTTTTTTTTATGTG [CACACA_negctrl_site966] ?
OUT: 6.78

IN: What does the record list as gcPBM binding intensity (ln) for ATTATTTTTCTATGTGTGCACGTGTGGAATGTGTCT [GTGCAC_site9507] ?
OUT: 10.3

IN: What does the record list as gcPBM binding intensity (ln) for CTATTTCAATTTAGTGCACACATTTTAATTTATAAG [CACACA_site2040] ?
OUT: 10.5

IN: What does the record list as gcPBM binding intensity (ln) for ACAATATTTTTTTATAAACACACATATATATAAATA [CACACA_site9175] ?
OUT: 7.18

IN: What does the record list as gcPBM binding intensity (ln) for TACATATAAATAATAACACACACCTAGGTACATGGA [CACACA_site838] ?
OUT: 6.89

IN: What does the record list as gcPBM binding intensity (ln) for ATCAAAAAAAAAAAAAGTACACAAAATTTTTTATTA [XGTACX_site7986] ?
OUT: 6.88

IN: What does the record list as gcPBM binding intensity (ln) for ATACTATTATATATATGTACATATATATGATGCTCT [XGTACX_site1771] ?
OUT: 7.22

IN: What does the record list as gcPBM binding intensity (ln) for TGTCTTGTAAATTATTGTACTATTTAAAGTATACAA [XGTACX_site7864] ?
OUT: 7.21

IN: What does the record list as gcPBM binding intensity (ln) for GAAGTTAGTGTTGACTGTACATATATATGTATATAT [XGTACX_site7243] ?
OUT: 7.21

IN: What does the record list as gcPBM binding intensity (ln) for TATGTGTATTTATTTGCATGTTGGTTGTATTTTTTC [TGCATGCA_site479] ?
OUT: 6.93

IN: What does the record list as gcPBM binding intensity (ln) for ATGAAATTTATATCATGTACATACAAGAGAAAAAAA [XGTACX_site3326] ?
OUT: 7

IN: What does the record list as gcPBM binding intensity (ln) for ATATATATATATATAGTGCACATTTATATAATTATT ?
OUT: 10.6

IN: What does the record list as gcPBM binding intensity (ln) for ATATATATATATGCATGTACATATATTTGTTATATC [XGTACX_site3197] ?
OUT: 9.3

IN: What does the record list as gcPBM binding intensity (ln) for GTATAATTATGTGCACGTACATATTTTATTATATAT [XGTACX_site8586] ?
OUT: 9.21

IN: What does the record list as gcPBM binding intensity (ln) for TATAGATAAGAATATGCACACATTTTATTTTTTTTT [CACACA_site1982] ?
OUT: 7.16

IN: What does the record list as gcPBM binding intensity (ln) for ATGGGGAATAATGAATGTACACAAATAAAAAGTTGG [XGTACX_site4015] ?
OUT: 7.13

IN: What does the record list as gcPBM binding intensity (ln) for TTATCAATAAAATGCACACACTGTAATATTATTAAA [CACACA_site6055] ?
OUT: 7.18

IN: What does the record list as gcPBM binding intensity (ln) for TATATATATATATATGCATGTACATATATTTGTTAT [TGCATGCA_site379] ?
OUT: 9.76

IN: What does the record list as gcPBM binding intensity (ln) for TTCTATATTATATATGCATGTGTTATTCTTATTTTC [TGCATGCA_site92] ?
OUT: 7.15

IN: What does the record list as gcPBM binding intensity (ln) for ATAATATATAATATAGTGCATTATTTATTAATTAAT [GTGCAC_site9852] ?
OUT: 10.1
